# Particulars: 323.15 K; 100 kPa; Liquid; Vibrating tube method
Reported mass density values follow for various molecules
Report as a plain number; the unit kg/m3 is understood.

Consider the worked cases shown below.
CCCCCCCCCC(=O)OC [methyl decanoate] ... 847.62
CC1CCCCC1 ... 743.19
CCCCCCCCCCCC(=O)OC [methyl dodecanoate] ... 845.76

Q: Request the reported mass density associated with CCCCCCCCCCCCCC(=O)OC [methyl tetradecanoate]
A: 844.34

---

Reported viscosity values follow for various molecules
# Particulars: 318.15 K; 100 kPa; Liquid; Falling or rolling sphere viscometry
Report as a plain number; the unit mPa·s is understood.

Consider the worked cases shown below.
CC1CCCCC1 ... 0.533
CCCCCCCCCCCCCC(=O)OC [methyl tetradecanoate] ... 2.544
CCCCCCCCCC(=O)OC [methyl decanoate] ... 1.341

Please examine the following record next.
Q: Request the reported viscosity associated with CCCCCCCCCCCC(=O)OC [methyl dodecanoate]
A: 1.875
